// values below are reported TGI
- Test system: BT-549 breast
- methodSummary: NCI tumour cell line growth inhibition, 48 h
# number only, unit µM dropped from output

Exercise: Given the entry CCOC(=O)C1(C(=O)OCC)CN(CC)CN(c2ccccc2)C1 , what TGI was observed with BT-549 breast?
Solution: 86.6

Exercise: Which TGI is reported with BT-549 breast for this entry: C=CCNC1=C2C[C@@H](C)C[C@@H](OC)[C@@H](OC(=O)CCCN)[C@H](C)/C=C(\C)[C@@H](OC(N)=O)[C@H](OC)/C=C\C=C(/C)C(=O)NC(=CC1=O)C2=O ?
Solution: 25.7

Exercise: # get_value(readout= TGI, system= BT-549 breast) for CCOC(=O)c1nc2c(Cl)c3ncccc3cc2[nH]c1=O
Solution: 94.7

Exercise: # query: TGI | item Cc1c(C2Nc3ccccc3C2C)[nH]c2ccccc12 (stereo not given) | system: BT-549 breast
Solution: 34.5

Exercise: Item: Cc1cc(NC(=O)c2ccc(C)c(Nc3nccc(-c4cccnc4)n3)c2)cc(-n2cnc(C)c2)c1 Test system: BT-549 breast Read-out: TGI Value: ?
Solution: 9.98

Exercise: What is its TGI for BT-549 breast? Entry: Cc1n(Cc2ccc3ccccc3c2)cc[n+]1Cc1ccc2ccccc2c1
Solution: 3.01

Exercise: Give recorded TGI with BT-549 breast for the following compound: CC(=O)Oc1ccc(Nc2c3ccccc3nc3ccccc23)cc1
Solution: 13.5

Exercise: Recorded TGI for Cc1cn2c(/C=C3/C(=O)Nc4ccccc43)c(-c3ccc(Cl)cc3)nc2s1 with BT-549 breast, please?
Solution: 19.3

Exercise: Value wanted: TGI (BT-549 breast) of entry c1ccc2c3ccn4cc5c(cc4c-3nc2c1)CCCC5
Solution: 59.6

====

- Test system: DMS 114 small cell lung
- methodSummary: NCI tumour cell line growth inhibition, 48 h
reportedProperty: TGI

Answered examples (2):
CCOC(=O)[C@H](CCCNC(=O)OC(C)(C)C)NCc1ccc(OC)c(OC)c1    > 100 µM
N#CC(C#N)=c1[nH]c2cccc3c2-c2c(cccc2c3=C(C#N)C#N)[nH]1    > 100 µM

Now let's try a different one.
Exercise: Give its TGI value. Item: NC(CCC(=O)NC(CSC(=O)N(O)c1ccc(Br)cc1)C(=O)NCC(=O)O)C(=O)O (stereo not drawn)
Solution: > 100 µM

====

# TGI listing for each entry below
- System: TK-10 renal
- methodSummary: NCI tumour cell line growth inhibition, 48 h
Report the figure in µM without appending any unit label.

CC(=O)c1csc2c1C(=O)c1scc(C(C)=O)c1C2=O    5.82
O=C1NC(=O)C(c2c[nH]c3cc(Br)ccc23)=C1c1cn(C(c2ccccc2)(c2ccccc2)c2ccccc2)cn1    38.4
CC(=O)Oc1ccccc1C(=O)N=C1[Se]CCCN1C(=O)c1ccccc1OC(C)=O    3.81

Here's the next entry for you.
Exercise: Quick one: TGI of Cc1[nH]n(-c2cccc(Cl)c2)c(=O)c1/C=C1\C=Nc2ccc(Br)cc21 ?
Solution: 5.18

====

Catalogue of TGI values
- System: COLO 205 colon
- methodSummary: NCI tumour cell line growth inhibition, 48 h
Give just the numeric value; µM need not be written.

Nc1ccc(C(=O)NN2C(=O)C(Cl)C2c2ccccc2Cl)cc1 (stereo unspecified)    28.1
O=C1CSC(Cc2nc3ccccc3[nH]2)=N1    50
O=C(N/N=C\c1cc(Br)ccc1O)c1ccncc1    16.8
c1cc(-c2ncc(-c3ccc4c(c3)CCCO4)o2)ccn1    91.5
CCN(CC)CCNCC(=O)Oc1ccc(/C=C/C(=O)CC(=O)/C=C/c2ccc(OC(=O)CNCCN(CC)CC)c(OC)c2)cc1OC    22.8

Exercise: So what's the measured TGI for this one? O=c1[nH]c2cc(Cl)ccc2n1C1CCN(CCCC(c2ccc(F)cc2)c2ccc(F)cc2)CC1
Solution: 2.6

Exercise: What value of TGI has been reported for the following molecule? COc1ccnc2c1C(=O)c1nc3ccccc3c3ccnc-2c13
Solution: 0.723

Exercise: # TGI lookup, item COC(CN(C(=O)c1ccccc1)C1CCC2(SCCS2)c2[nH]c3ccccc3c21)OC (stereo unspecified)
Solution: 59.3

Exercise: Using the record for COc1cccc(CCn2c(N)c(-c3ccccc3)c3ccc([N+](=O)[O-])cc3c2=O)c1 , report its TGI.
Solution: 5.93

====

Measured TGI by item
- System: NCI-H23 lung
- methodSummary: NCI tumour cell line growth inhibition, 48 h

Cc1cc(C)n(CCNCCn2nc(C)cc2C)n1    > 100 µM

Exercise: // returns reported TGI for input COc1cc2c(cc1OC)C13CCN4CC5=CCOC6CC(=O)N2C1C6C5CC43O (stereo not drawn)
Solution: > 100 µM

Exercise: Consider the molecule CC12CCC(C(=O)OC1=O)C2(C)C (stereo not drawn) and give its measured TGI.
Solution: > 100 µM

====

- System: SW-620 colon
- methodSummary: NCI tumour cell line growth inhibition, 48 h
List of TGI values.

Exercise: Entry CC(=O)Oc1ccccc1C(=O)N=C1[Se]CCCN1C(=O)c1ccccc1OC(C)=O has what TGI?
Solution: 11.4 µM

Exercise: What does the record list as TGI for COn1cc(C=O)c2ccccc21 ?
Solution: > 100 µM

Exercise: Look up TGI for this molecule: COc1ccc(CCNC2=CC(=O)c3ncccc3C2=O)cc1OC
Solution: 5.54 µM

Exercise: # query: TGI of entry COc1ccc(-c2cc(-c3cccn3C)c(C#N)c(N)n2)cc1OC
Solution: > 100 µM

Exercise: Which TGI is reported for this molecule? Nc1nc(Cl)cc(NCCO)n1
Solution: > 100 µM

Exercise: What does the data say about its TGI? Entry: COc1ccc(C[N+]23C(CC[C@H]2c2ccccc2)CC[C@H]3c2ccccc2)cc1 (stereo partly specified)
Solution: > 100 µM

Exercise: Could you share which TGI value was measured for CCOC(=O)C1(C(=O)OCC)CN(CC)CN(c2ccccc2)C1 ?
Solution: > 100 µM

Exercise: Look at this molecule and give its reported TGI. O=C(N/N=C\c1cc(Br)ccc1O)c1ccncc1
Solution: > 100 µM

Exercise: Any idea what its TGI is? The molecule is C[C@]12CCC(=O)C=C1CC[C@@H]1C2CC[C@]2(C)c3nn(-c4ccc(F)cc4)nc3CC12 (stereo partly specified)
Solution: > 100 µM

Exercise: Which TGI value belongs to Cc1ccc(N(CSc2ccc(Cl)cc2)CSc2ccc(Cl)cc2)cc1 ?
Solution: 11.5 µM

Exercise: Return reported TGI; argument: O=c1[nH]cc(COCC(F)(F)C(F)(F)C(F)(F)C(F)F)c(=O)[nH]1
Solution: > 100 µM

====

- Test system: NCI-H522 lung
- methodSummary: NCI tumour cell line growth inhibition, 48 h
Measured TGI, listed per entry for reference.

As a guide, the following entries are already answered.
CC(C)c1ccccc1S(=O)c1ccccc1C(C)(C)O (stereo unspecified)    > 100 µM
O=C(Nc1ccc(Cl)cc1F)c1cc(Br)ccc1O    9.23 µM
Fc1ccc(Nc2cc(-n3nnc4ccccc43)nc3ccccc23)cc1    > 100 µM
COc1ccnc2c1C(=O)c1nc3ccccc3c3ccnc-2c13    0.262 µM
Cc1sc2nc(NCCc3c[nH]c4ccc(Cl)cc34)[nH]c(=O)c2c1C    3.91 µM

Exercise: What value of TGI has been reported for the following compound? COc1ccccc1/C=C/c1cnccn1
Solution: > 10 µM

Exercise: Suppose we examine the compound Clc1ccc(Cl)c(Nc2ccnc(SCc3ccccc3)n2)c1 ; what TGI value has been reported?
Solution: > 100 µM

Exercise: So what does the record say about TGI for COC(=O)/C=C/C1C(C(=O)OC)C2(C(=O)OC)CCC1(C(=O)OC)N2 (stereo unspecified) ?
Solution: > 100 µM

Exercise: May I ask what TGI has been recorded for COc1ccccc1NC(=O)C1=C(C)NC(C)=C(C(=O)Nc2ccccc2OC)C1c1ccc([N+](=O)[O-])cc1 ?
Solution: > 100 µM

Exercise: Recorded TGI of CCCCN1C=CN2c3nc4cc(C)c(C)cc4n3C(C(=O)OC)=C(C(=O)OC)C12 (stereo unspecified) , please.
Solution: > 100 µM

Exercise: Which TGI value belongs to COC1=C(Br)[C@H](O)[C@@]2(C=C1Br)CC(C(=O)NCCCCCN=C(N)N)=NO2 ?
Solution: > 10 µM

====

Quick reference: TGI of the listed items.
- Tested on: SK-MEL-5 melanoma
- methodSummary: NCI tumour cell line growth inhibition, 48 h
Give the number; µM is assumed, so skip it.

Here is how some compounds turned out for TGI.
c1ccc2c3ccn4cc5c(cc4c-3nc2c1)CCCC5    10.3
CC(=O)c1csc2c1C(=O)c1scc(C(C)=O)c1C2=O    2.77

Exercise: I would be grateful if you could share the reported TGI for Cc1cn2c(/C=C3/C(=O)Nc4ccccc43)c(-c3ccc(Cl)cc3)nc2s1 .
Solution: 16
